Field: EC50. Provide a value for each of the compounds that follow.
Test system: Influenza A virus
Assay Remarks: Antiviral activity against Influenza A virus (A/WSN/1933(H1N1)) infected in MDCK cells assessed as inhibition of virus induced cytopathic effect
Assay type: functional, organism-based

Worked examples, 5 compounds total:
CC(=O)N[C@H]1[C@H]([C@H](OC(=O)NCCCOC(=O)c2ccc3ccccc3c2O)[C@H](O)CO)OC(C(=O)O)=C[C@@H]1NC(=N)N = 50 nM
CC(=O)N[C@H]1[C@H]([C@H](O)[C@H](O)CO)OC(C(=O)O)=C[C@@H]1NC(=N)N [ZANAMIVIR] = 3.5 nM
CC(=O)N[C@H]1[C@H]([C@H](OC(=O)NCCCNC(=O)/C=C/c2ccc(O)c(O)c2)[C@H](O)CO)OC(C(=O)O)=C[C@@H]1NC(=N)N = 5.1 nM
O=C(O)/C=C/c1ccc(O)c(O)c1 [CAFFEIC ACID] = > 100000 nM
CC(=O)N[C@H]1[C@H]([C@H](O)[C@H](O)CO)OC(C(=O)OCCCOC(=O)/C=C/c2ccc3c(c2)OCO3)=C[C@@H]1NC(=N)N = 28 nM

I would be grateful if you could provide EC50 for each of the following entries.
1. CC(=O)N[C@H]1[C@H]([C@H](OC(=O)NCCCO)[C@H](O)CO)OC(C(=O)O)=C[C@@H]1NC(=N)N
2. CC(=O)N[C@H]1[C@H]([C@H](OC(=O)NCCCOC(=O)c2cc(N)ccc2O)[C@H](O)CO)OC(C(=O)O)=C[C@@H]1NC(=N)N
3. Nc1ccc(O)c(C(=O)O)c1 [MESALAMINE]
4. CC(=O)N[C@H]1[C@H]([C@H](OC(=O)NCCCNC(=O)c2ccc3ccccc3c2O)[C@H](O)CO)OC(C(=O)O)=C[C@@H]1NC(=N)N
5. CC(=O)N[C@H]1[C@H]([C@H](O)[C@H](O)CO)OC(C(=O)OCCCOC(=O)/C=C/c2ccc(O)c(O)c2)=C[C@@H]1NC(=N)N
6. O=C(O)/C=C/c1ccc2c(c1)OCO2
7. CC(=O)N[C@H]1[C@H]([C@H](OC(=O)NCCCOC(=O)/C=C/c2ccc(O)c(O)c2)[C@H](O)CO)OC(C(=O)O)=C[C@@H]1NC(=N)N

1. 105 nM
2. 3.3 nM
3. > 100000 nM
4. 6.6 nM
5. 25 nM
6. > 100000 nM
7. 1.4 nM
